# System: S. aureus Newman
# Assay procedure: fitness (endpoint OD595 vs no drug) (fraction); higher = more growth
# Study conditions: first compound 37.5 µg/mL; partner 1.25 µg/mL; main component drawn
I'd appreciate it if you could supply fitness values for the items below.
One number for each entry.

Hey, can you go through the list below and give me fitness for every item?
1. CC[C@H](C)[C@H](N)C1=N[C@H](C(=O)N[C@@H](CC(C)C)C(=O)N[C@H](CCC(=O)O)C(=O)N[C@H](C(=O)N[C@H]2CCCCNC(=O)[C@H](CC(N)=O)NC(=O)[C@@H](CC(=O)O)NC(=O)[C@H](Cc3cnc[nH]3)NC(=O)[C@@H](Cc3ccccc3)NC(=O)[C@H]([C@@H](C)CC)NC(=O)[C@@H](CCCN)NC2=O)[C@@H](C)CC)CS1 [Bacitracin] + CN1C2=CC=CC=C2N=C3C1=CC=CC3=O [Pyocyanin]
2. CC[C@H](C)[C@H](N)C1=N[C@H](C(=O)N[C@@H](CC(C)C)C(=O)N[C@H](CCC(=O)O)C(=O)N[C@H](C(=O)N[C@H]2CCCCNC(=O)[C@H](CC(N)=O)NC(=O)[C@@H](CC(=O)O)NC(=O)[C@H](Cc3cnc[nH]3)NC(=O)[C@@H](Cc3ccccc3)NC(=O)[C@H]([C@@H](C)CC)NC(=O)[C@@H](CCCN)NC2=O)[C@@H](C)CC)CS1 [Bacitracin] + CO/N=C(\C(=O)N[C@@H]1C(=O)N2C(C(=O)O)=C(COC(C)=O)CS[C@H]12)c1csc(N)n1 [Cefotaxime]
3. CC[C@H](C)[C@H](N)C1=N[C@H](C(=O)N[C@@H](CC(C)C)C(=O)N[C@H](CCC(=O)O)C(=O)N[C@H](C(=O)N[C@H]2CCCCNC(=O)[C@H](CC(N)=O)NC(=O)[C@@H](CC(=O)O)NC(=O)[C@H](Cc3cnc[nH]3)NC(=O)[C@@H](Cc3ccccc3)NC(=O)[C@H]([C@@H](C)CC)NC(=O)[C@@H](CCCN)NC2=O)[C@@H](C)CC)CS1 [Bacitracin] + Cc1ncc([N+](=O)[O-])n1CCO [Metronidazole]
4. CC[C@H](C)[C@H](N)C1=N[C@H](C(=O)N[C@@H](CC(C)C)C(=O)N[C@H](CCC(=O)O)C(=O)N[C@H](C(=O)N[C@H]2CCCCNC(=O)[C@H](CC(N)=O)NC(=O)[C@@H](CC(=O)O)NC(=O)[C@H](Cc3cnc[nH]3)NC(=O)[C@@H](Cc3ccccc3)NC(=O)[C@H]([C@@H](C)CC)NC(=O)[C@@H](CCCN)NC2=O)[C@@H](C)CC)CS1 [Bacitracin] + C[n+]1ccc(-c2cc[n+](C)cc2)cc1 [Paraquat]

Result:
[0.208, 0.0203, 0.243, 0.276]

----------
I'd appreciate it if you could supply Bliss interaction score values for the items below.
# System: S. aureus Newman
# Assay procedure: Bliss interaction score (quartile over a dose matrix) (fitness difference); higher = more antagonism (negative = synergy)
Give bare numbers.

Worked cases, Bliss interaction score given:
Molecule	Bliss interaction score
CN[C@@H]1[C@H](O[C@H]2[C@H](O[C@H]3[C@H](O)[C@@H](O)[C@H](N=C(N)N)[C@@H](O)[C@@H]3N=C(N)N)O[C@@H](C)[C@]2(O)C=O)O[C@@H](CO)[C@H](O)[C@H]1O [Streptomycin] + CC[C@H]1OC(=O)[C@H](C)C(=O)[C@H](C)[C@@H](O[C@@H]2O[C@H](C)C[C@H](N(C)C)[C@H]2O)[C@](C)(OC)C[C@@H](C)C(=O)[C@H](C)[C@H]2N(CCCCn3cnc(-c4cccnc4)c3)C(=O)O[C@]12C [Telithromycin]	-0.109
CO[C@@]12[C@H](COC(N)=O)C3=C(C(=O)C(C)=C(N)C3=O)N1C[C@@H]1N[C@@H]12 [MitomycinC] + CN(N=O)C(=O)N[C@@H](C=O)[C@@H](O)[C@H](O)[C@H](O)CO [Streptozotocin]	0.0483

Problem: Request the reported Bliss interaction score associated with CC[C@H]1OC(=O)[C@H](C)[C@@H](O[C@H]2C[C@@](C)(OC)[C@@H](O)[C@H](C)O2)[C@H](C)[C@@H](O[C@@H]2O[C@H](C)C[C@H](N(C)C)[C@H]2O)[C@](C)(O)C[C@@H](C)C(=O)[C@H](C)[C@@H](O)[C@]1(C)O [Erythromycin] + COc1ccc(C[C@H](N)C(=O)N[C@H]2[C@@H](O)[C@H](n3cnc4c(N(C)C)ncnc43)O[C@@H]2CO)cc1 [Puromycin]
Result: -0.0378

----------
# Test system: S. aureus DSM 20231
# Assay procedure: Bliss interaction score (quartile over a dose matrix) (fitness difference); higher = more antagonism (negative = synergy)
# Study conditions: main component drawn
Value kind: Bliss interaction score
One number for each entry.

Problem: Request the reported Bliss interaction score associated with CC[C@H](C)[C@H](N)C1=N[C@H](C(=O)N[C@@H](CC(C)C)C(=O)N[C@H](CCC(=O)O)C(=O)N[C@H](C(=O)N[C@H]2CCCCNC(=O)[C@H](CC(N)=O)NC(=O)[C@@H](CC(=O)O)NC(=O)[C@H](Cc3cnc[nH]3)NC(=O)[C@@H](Cc3ccccc3)NC(=O)[C@H]([C@@H](C)CC)NC(=O)[C@@H](CCCN)NC2=O)[C@@H](C)CC)CS1 [Bacitracin] + CO[C@@]12[C@H](COC(N)=O)C3=C(C(=O)C(C)=C(N)C3=O)N1C[C@@H]1N[C@@H]12 [MitomycinC]
Result: -0.0743

----------
I'd appreciate it if you could supply Bliss interaction score values for the items below.
# Test system: S. aureus DSM 20231
# Assay procedure: Bliss interaction score (quartile over a dose matrix) (fitness difference); higher = more antagonism (negative = synergy)
Answers are plain numbers.

Hey, can you go through the list below and give me Bliss interaction score for every item?
1. CO[C@@H]1[C@@H](OC(N)=O)[C@@H](O)[C@H](Oc2ccc3c(O)c(NC(=O)c4ccc(O)c(CC=C(C)C)c4)c(=O)oc3c2C)OC1(C)C [Novobiocin] + C/C(=C\C(=O)OCCCCCCCCC(=O)O)C[C@@H]1OC[C@H](C[C@@H]2O[C@H]2[C@@H](C)[C@H](C)O)[C@@H](O)[C@H]1O [Pseudomonic acid]
2. CO[C@@H]1[C@@H](OC(N)=O)[C@@H](O)[C@H](Oc2ccc3c(O)c(NC(=O)c4ccc(O)c(CC=C(C)C)c4)c(=O)oc3c2C)OC1(C)C [Novobiocin] + CN[C@@H]1[C@H](O)[C@H](NC)[C@H]2O[C@@]3(O)C(=O)C[C@@H](C)O[C@H]3O[C@@H]2[C@H]1O [Spectinomycin]
3. CO[C@@H]1[C@@H](OC(N)=O)[C@@H](O)[C@H](Oc2ccc3c(O)c(NC(=O)c4ccc(O)c(CC=C(C)C)c4)c(=O)oc3c2C)OC1(C)C [Novobiocin] + CN[C@@H]1[C@H](O[C@H]2[C@H](O[C@H]3[C@H](O)[C@@H](O)[C@H](N=C(N)N)[C@@H](O)[C@@H]3N=C(N)N)O[C@@H](C)[C@]2(O)C=O)O[C@@H](CO)[C@H](O)[C@H]1O [Streptomycin]
4. CN[C@@H]1[C@H](O[C@H]2[C@H](O[C@H]3[C@H](O)[C@@H](O)[C@H](N=C(N)N)[C@@H](O)[C@@H]3N=C(N)N)O[C@@H](C)[C@]2(O)C=O)O[C@@H](CO)[C@H](O)[C@H]1O [Streptomycin] + CC/C(=C(\c1ccccc1)c1ccc(OCCN(C)C)cc1)c1ccccc1 [Tamoxifene]
5. CN[C@@H]1[C@H](O[C@H]2[C@H](O[C@H]3[C@H](O)[C@@H](O)[C@H](N=C(N)N)[C@@H](O)[C@@H]3N=C(N)N)O[C@@H](C)[C@]2(O)C=O)O[C@@H](CO)[C@H](O)[C@H]1O [Streptomycin] + Cn1nnc(-c2ccc(-c3ccc(N4C[C@H](CO)OC4=O)cc3F)cn2)n1 [Tedizolid]
6. CC(=O)NC[C@H]1CN(c2ccc(N3CCOCC3)c(F)c2)C(=O)O1 [Linezolid] + COc1ccc2[nH]c([S+]([O-])Cc3ncc(C)c(OC)c3C)nc2c1 [Omeprazole]

Result:
[-0.0173, 0.0538, -0.111, 0.166, 0.155, 0.192]

Problem: Request the reported Bliss interaction score associated with CN[C@@H]1[C@H](O[C@H]2[C@H](O[C@H]3[C@H](O)[C@@H](O)[C@H](N=C(N)N)[C@@H](O)[C@@H]3N=C(N)N)O[C@@H](C)[C@]2(O)C=O)O[C@@H](CO)[C@H](O)[C@H]1O [Streptomycin] + Cc1cc(NS(=O)(=O)c2ccc(N)cc2)no1 [Sulfamethoxazol]
Result: 0.0929

----------
# Test system: S. aureus DSM 20231
# Assay procedure: Bliss interaction score (quartile over a dose matrix) (fitness difference); higher = more antagonism (negative = synergy)
# Study conditions: main component drawn
Value kind: Bliss interaction score
Numbers only.

Worked cases, Bliss interaction score given:
Compound	Bliss interaction score
CC[C@H](C)[C@H](N)C1=N[C@H](C(=O)N[C@@H](CC(C)C)C(=O)N[C@H](CCC(=O)O)C(=O)N[C@H](C(=O)N[C@H]2CCCCNC(=O)[C@H](CC(N)=O)NC(=O)[C@@H](CC(=O)O)NC(=O)[C@H](Cc3cnc[nH]3)NC(=O)[C@@H](Cc3ccccc3)NC(=O)[C@H]([C@@H](C)CC)NC(=O)[C@@H](CCCN)NC2=O)[C@@H](C)CC)CS1 [Bacitracin] + CC(C1CCC(C(O1)OC2C(CC(C(C2O)OC3C(C(C(CO3)(C)O)NC)O)N)N)N)NC [Gentamicin]	-0.0565
CC[C@H](C)[C@H](N)C1=N[C@H](C(=O)N[C@@H](CC(C)C)C(=O)N[C@H](CCC(=O)O)C(=O)N[C@H](C(=O)N[C@H]2CCCCNC(=O)[C@H](CC(N)=O)NC(=O)[C@@H](CC(=O)O)NC(=O)[C@H](Cc3cnc[nH]3)NC(=O)[C@@H](Cc3ccccc3)NC(=O)[C@H]([C@@H](C)CC)NC(=O)[C@@H](CCCN)NC2=O)[C@@H](C)CC)CS1 [Bacitracin] + CN1C2=CC=CC=C2N=C3C1=CC=CC3=O [Pyocyanin]	0.0748
CC[C@H](C)[C@H](N)C1=N[C@H](C(=O)N[C@@H](CC(C)C)C(=O)N[C@H](CCC(=O)O)C(=O)N[C@H](C(=O)N[C@H]2CCCCNC(=O)[C@H](CC(N)=O)NC(=O)[C@@H](CC(=O)O)NC(=O)[C@H](Cc3cnc[nH]3)NC(=O)[C@@H](Cc3ccccc3)NC(=O)[C@H]([C@@H](C)CC)NC(=O)[C@@H](CCCN)NC2=O)[C@@H](C)CC)CS1 [Bacitracin] + CN(N=O)C(=O)N[C@@H](C=O)[C@@H](O)[C@H](O)[C@H](O)CO [Streptozotocin]	-0.0576
CC[C@H](C)[C@H](N)C1=N[C@H](C(=O)N[C@@H](CC(C)C)C(=O)N[C@H](CCC(=O)O)C(=O)N[C@H](C(=O)N[C@H]2CCCCNC(=O)[C@H](CC(N)=O)NC(=O)[C@@H](CC(=O)O)NC(=O)[C@H](Cc3cnc[nH]3)NC(=O)[C@@H](Cc3ccccc3)NC(=O)[C@H]([C@@H](C)CC)NC(=O)[C@@H](CCCN)NC2=O)[C@@H](C)CC)CS1 [Bacitracin] + CCC[C@@H]1C[C@@H](C(=O)N[C@@H]([C@H]2O[C@H](SC)[C@H](O)[C@@H](O)[C@H]2O)[C@H](C)Cl)N(C)C1 [Clindamycin]	0.0155
CC[C@H](C)[C@H](N)C1=N[C@H](C(=O)N[C@@H](CC(C)C)C(=O)N[C@H](CCC(=O)O)C(=O)N[C@H](C(=O)N[C@H]2CCCCNC(=O)[C@H](CC(N)=O)NC(=O)[C@@H](CC(=O)O)NC(=O)[C@H](Cc3cnc[nH]3)NC(=O)[C@@H](Cc3ccccc3)NC(=O)[C@H]([C@@H](C)CC)NC(=O)[C@@H](CCCN)NC2=O)[C@@H](C)CC)CS1 [Bacitracin] + COc1cccc2c1C(=O)c1c(O)c3c(c(O)c1C2=O)C[C@@](O)(C(=O)CO)C[C@@H]3O[C@H]1C[C@H](N)[C@H](O)[C@H](C)O1 [Doxorubicin]	0.115

Hey, can you go through the list below and give me Bliss interaction score for every item?
1. CC[C@H](C)[C@H](N)C1=N[C@H](C(=O)N[C@@H](CC(C)C)C(=O)N[C@H](CCC(=O)O)C(=O)N[C@H](C(=O)N[C@H]2CCCCNC(=O)[C@H](CC(N)=O)NC(=O)[C@@H](CC(=O)O)NC(=O)[C@H](Cc3cnc[nH]3)NC(=O)[C@@H](Cc3ccccc3)NC(=O)[C@H]([C@@H](C)CC)NC(=O)[C@@H](CCCN)NC2=O)[C@@H](C)CC)CS1 [Bacitracin] + COc1ccc(C[C@H](N)C(=O)N[C@H]2[C@@H](O)[C@H](n3cnc4c(N(C)C)ncnc43)O[C@@H]2CO)cc1 [Puromycin]
2. CC[C@H](C)[C@H](N)C1=N[C@H](C(=O)N[C@@H](CC(C)C)C(=O)N[C@H](CCC(=O)O)C(=O)N[C@H](C(=O)N[C@H]2CCCCNC(=O)[C@H](CC(N)=O)NC(=O)[C@@H](CC(=O)O)NC(=O)[C@H](Cc3cnc[nH]3)NC(=O)[C@@H](Cc3ccccc3)NC(=O)[C@H]([C@@H](C)CC)NC(=O)[C@@H](CCCN)NC2=O)[C@@H](C)CC)CS1 [Bacitracin] + Oc1cc(Cl)ccc1Oc1ccc(Cl)cc1Cl [Triclosan]

Result:
-0.0671
0.0303

Hey, can you go through the list below and give me Bliss interaction score for every item?
1. CC[C@H](C)[C@H](N)C1=N[C@H](C(=O)N[C@@H](CC(C)C)C(=O)N[C@H](CCC(=O)O)C(=O)N[C@H](C(=O)N[C@H]2CCCCNC(=O)[C@H](CC(N)=O)NC(=O)[C@@H](CC(=O)O)NC(=O)[C@H](Cc3cnc[nH]3)NC(=O)[C@@H](Cc3ccccc3)NC(=O)[C@H]([C@@H](C)CC)NC(=O)[C@@H](CCCN)NC2=O)[C@@H](C)CC)CS1 [Bacitracin] + O=C(O)c1cn(C2CC2)c2cc(N3CCNCC3)c(F)cc2c1=O [Ciprofloxacin]
2. CC[C@H](C)[C@H](N)C1=N[C@H](C(=O)N[C@@H](CC(C)C)C(=O)N[C@H](CCC(=O)O)C(=O)N[C@H](C(=O)N[C@H]2CCCCNC(=O)[C@H](CC(N)=O)NC(=O)[C@@H](CC(=O)O)NC(=O)[C@H](Cc3cnc[nH]3)NC(=O)[C@@H](Cc3ccccc3)NC(=O)[C@H]([C@@H](C)CC)NC(=O)[C@@H](CCCN)NC2=O)[C@@H](C)CC)CS1 [Bacitracin] + CO/N=C(\C(=O)N[C@@H]1C(=O)N2C(C(=O)O)=C(COC(N)=O)CS[C@H]12)c1ccco1 [Cefuroxime]

Result:
1. -0.0438
2. -0.188
